- target.or.system: recombinant human α1D receptor (Homo sapiens, UniProt P25100)
- Construct: expressed in transfected cells; host or cells: human embryonic kidney 293 cells (HEK93 [sic]), membranes
- Sequence (P25100 1-572): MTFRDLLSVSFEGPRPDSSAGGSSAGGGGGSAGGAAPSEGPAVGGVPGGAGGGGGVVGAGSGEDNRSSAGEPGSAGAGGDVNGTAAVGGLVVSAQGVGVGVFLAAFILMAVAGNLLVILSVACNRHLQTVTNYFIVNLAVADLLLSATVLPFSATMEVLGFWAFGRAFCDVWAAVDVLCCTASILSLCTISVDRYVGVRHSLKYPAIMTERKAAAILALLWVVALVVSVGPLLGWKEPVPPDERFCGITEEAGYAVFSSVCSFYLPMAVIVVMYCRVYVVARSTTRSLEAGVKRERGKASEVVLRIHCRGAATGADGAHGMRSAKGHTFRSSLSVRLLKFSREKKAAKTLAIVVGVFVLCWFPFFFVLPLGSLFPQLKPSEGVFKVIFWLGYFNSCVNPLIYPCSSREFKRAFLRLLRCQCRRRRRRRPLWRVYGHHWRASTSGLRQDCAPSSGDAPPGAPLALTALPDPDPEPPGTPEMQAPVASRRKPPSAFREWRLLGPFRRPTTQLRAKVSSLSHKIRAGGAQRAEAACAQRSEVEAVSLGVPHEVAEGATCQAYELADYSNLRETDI
- procedure.text: Adrenergic α1D selectivity assay, [3H]-prazosin binding to membranes
- assay.conditions: inhibition of [3H]-prazosin binding, HEK cell membranes, read-out: α1 bind pIC50 (converted)
Where a name gives a salt, the structure may show the parent alone.
assay.readout: IC50 (nM)
Number only, in nM; omit the unit.

Problem: Would you kindly share the measured IC50 for O=C1COc2c(CCNCCN(C(=O)CCNCCc3ccccc3)C3CCCCC3)ccc(O)c2N1 [Example 23, bis(trifluoroacetate)] ?
Solution: 126

Problem: Would you kindly share the measured IC50 for CCCC[C@@H](C)N(CCNCCc1ccc(O)c2c1OCC(=O)N2)C(=O)CCNCCc1cc(F)ccc1C [Example 57, bis(trifluoroacetate)] ?
Solution: 100

Please turn your attention to the following entry.
Problem: Would you kindly share the measured IC50 for O=C1Cc2c(CCNCCN(C(=O)CCNCCc3cccc(F)c3)C3CCCCC3)ccc(O)c2N1 [Example 20, dihydrobromide] ?
Solution: 158

###

# reported IC50; entries follow
- target.or.system: recombinant human Dopamine Subtype D2s receptors (Homo sapiens)
- Construct: purchased Perkin Elmer
- Sequence (P14416 1-414 isoform P14416-2): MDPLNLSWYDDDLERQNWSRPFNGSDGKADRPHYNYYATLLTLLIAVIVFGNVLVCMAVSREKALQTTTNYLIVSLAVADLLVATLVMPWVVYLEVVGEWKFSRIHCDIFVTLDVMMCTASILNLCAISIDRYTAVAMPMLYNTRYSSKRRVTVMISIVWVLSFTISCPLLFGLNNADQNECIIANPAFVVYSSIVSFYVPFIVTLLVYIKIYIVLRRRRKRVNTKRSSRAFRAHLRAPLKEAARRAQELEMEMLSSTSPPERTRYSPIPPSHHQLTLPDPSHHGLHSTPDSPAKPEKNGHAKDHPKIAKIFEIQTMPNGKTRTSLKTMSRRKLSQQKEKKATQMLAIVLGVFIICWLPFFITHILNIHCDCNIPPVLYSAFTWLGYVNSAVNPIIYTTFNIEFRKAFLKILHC
- procedure.text: Dopamine D2 selectivity assay, [3H]-spiperone binding to membranes
- assay.conditions: inhibition of [3H]-spiperone binding, read-out: D2 bind pIC50 (converted)
Where a name gives a salt, the structure may show the parent alone.
Number only, in nM; omit the unit.

Problem: Would you kindly share the measured IC50 for CCCC[C@@H](C)N(CCNCCc1ccc(O)c2c1OCC(=O)N2)C(=O)CCNCCc1cccc(F)c1F [Example 53, bis(trifluoroacetate)] ?
Solution: 39.8

Next:
Problem: Would you kindly share the measured IC50 for Cl.O=C(CCOCCc1ccccc1F)N(CCNCCc1ccc(O)c2[nH]c(=O)ccc12)C1CCCCC1 [Example 73, hydrochloride] ?
Solution: 5010

Problem: Would you kindly share the measured IC50 for O=C1COc2c(CCNCCN(C(=O)CCOCCc3ccc(F)cc3)C3CCCCC3)ccc(O)c2N1 [Example 75, trifluoroacetate] ?
Solution: 2000

Problem: Would you kindly share the measured IC50 for CCCC[C@@H](C)N(CCNCCc1ccc(O)c2c1OCC(=O)N2)C(=O)CCNCCc1cc(F)ccc1C [Example 57, bis(trifluoroacetate)] ?
Solution: 15.8

Problem: Would you kindly share the measured IC50 for CCCC[C@@H](C)N(CCNCCc1ccc(O)c2c1OCC(=O)N2)C(=O)CCNCCc1ccc(Cl)c(Cl)c1 [Example 55, bis(trifluoroacetate)] ?
Solution: 50.1

Problem: Would you kindly share the measured IC50 for O=C(CCNCCc1ccccc1)N(CCNCCc1ccc(O)c(O)c1)C1CCCCC1 [Example 22, bis(trifluoroacetate)] ?
Solution: 501
